- experiment: NCI Yeast Anticancer Drug Screen. Data for the bub3 strain (AID 167)
- cond: S. cerevisiae bub3 mutant strain, at 100.0 µM, stronger effect = higher value
The panel holds about 79,000 compounds, 15% with a hit somewhere; the sample as a whole holds those more often.
# label = yes if growth inhibition >= 70% else no

molecule=CNC(=O)OCc1c(COC(=O)NC)c(-c2ccc(-c3ccccc3)cc2)n(C)c1C category_label=no
molecule=CC(=O)OCc1ccc(O)c(C=O)c1 category_label=no
molecule=COc1ccc(O)c(/C=N\Nc2ccccc2)c1 category_label=no

Is growth inhibition at least 70%? Consider `S=C(S)NN1CCOCC1`
no

Please answer likewise for O=C(OCCN1CCCCCC1)C(c1ccsc1)C1CCCCC1 (centres undefined)
yes

What do you have for `CC[C@@]1(O)C(=O)OCc2c1cc1n(c2=O)Cc2cc3c(N)cccc3nc2-1` ?
no

For `C[C@@H]1C[C@H]2[C@@H]3CCC4=CC(=O)C=C[C@]4(C)[C@@]3(Cl)[C@@H](Cl)C[C@]2(C)[C@@]1(O)C(=O)COP(=O)(O)O` then?
no

Check `CC(=O)OCCOCNC(=S)N/N=C(\C)c1cnccn1` too.
yes

###

# maps each entry to its growth inhibition
- experiment: NCI Yeast Anticancer Drug Screen. Data for the sgs1 strain (AID 173);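 also: 0% = growth of vehicle-only control cultures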
- cond: S. cerevisiae sgs1 mutant, at 1.2 µM, stronger effect = higher value
Compounds without any hit were thinned out: in the full panel of roughly 79,000, 15% have a hit.
Write down the numeric answer in % and omit the unit.

molecule=O=C1C=CC(=C(c2ccccc2)c2ccccc2)c2ccccc21 reported_measurement=-11
molecule="Cc1ccc(C2C(Cl)C(=O)N2n2cnc3ccccc3c2=O)cc1 (centres undefined)" reported_measurement=11
molecule="CCc1ncnc2cc(OCC3CO3)c(OC)cc12 (centres undefined)" reported_measurement=31
molecule=CC(=O)OCc1ccc(O)c(C=O)c1 reported_measurement=-11
molecule=S=c1[nH]nc(Nc2ccc(Cl)cc2)s1 reported_measurement=-14
molecule=CN(C)c1ccc(Sc2ccc3nc(N)nc(N)c3c2)cc1 reported_measurement=14

Item `COc1ccc(/C(C)=N/OC(=O)c2c(-c3ccccc3Cl)noc2C)cc1CN1CCOCC1` has what recorded growth inhibition?
-30

Then `CCNc1nnc(CSc2nc(-c3ccccc3)c(-c3ccccc3)[nH]2)s1` ?
23

Next: O=C1C2CC[C@@H]3C(=O)C(Cl)(Cl)[C@@H]3CCC2C1(Cl)Cl (some centres undefined)
-21

Record: `S=C(S)NN1CCOCC1`
84

Same lookup for `CN(Cc1cnc2nc(N)nc(N)c2n1)c1ccc(C(=O)N[C@@H](CCC(=O)O)C(=O)O)cc1` , please.
-2

Now consider `O=C1C(=O)c2ccccc2C=C1[N+](=O)[O-]` and answer again.
4

`CCN(CC)C(C)(C)C(=O)/C=C/c1ccccc1` ?
2

Follow-up entry: `COc1ccc(Br)c(C(=O)Sc2nnnn2-c2cccc(Cl)c2)c1`
2

###

- experiment: NCI Yeast Anticancer Drug Screen. Data for the rad50 strain (AID 155);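 also: 0% = growth of vehicle-only cultures of the same strain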
- cond: S. cerevisiae rad50 strain growth inhibition; at 100.0 µM
The panel holds about 79,000 compounds, 15% with a hit somewhere; the sample as a whole holds those more often. Active and inactive are the calls of the source. Cut-off read from the data, not from the text of the source: active = growth inhibition above about 70%; inactive = the rest.
Give one outcome, nothing more. List: True = active, False = inactive

Worked cases, answers included:
compound=COC(=O)c1ccc(NCC2=CC(=O)C=CC2=O)cc1O category_label=True
compound=CSC(=S)Nc1cccc(C)n1 category_label=True
compound=O=[N+]([O-])C(=C(Sc1ccccc1)Sc1ccccc1)C(Cl)=C(Cl)Cl category_label=False
compound="C=CC(C)(O)CCC1C(=C)C(O)CC2C(C)(C)CCCC12C (configuration not stated)" category_label=True
compound=CCCCCCCCCC/C=C\C(=O)O category_label=True

# fetch the recorded call for `Cc1cc(S(=O)(=O)/N=C(/NN)NNc2cccc(C(F)(F)F)n2)c(S)cc1Cl` here
False

Now the compound `S=C(N/N=C/c1ccccn1)Nc1ccc(Cl)cc1`
False

###

- experiment: NCI Yeast Anticancer Drug Screen. Data for the CLN2oe strain (AID 163);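 also: 0% = growth of vehicle-only control cultures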
- cond: S. cerevisiae CLN2oe strain, at 33.0 µM
The panel holds about 79,000 compounds, 15% with a hit somewhere; the sample as a whole holds those more often. Activity calls are given as the source filed them. No stated cut-off is given here; in the data, active means growth inhibition above about 70%; inactive means the rest.
The categories you may choose from are label 1 = active, label 0 = inactive

compound=O=C1c2cc([N+](=O)[O-])ccc2-c2cccc(F)c21 category_label="label 0"

Dear colleague, could you share the recorded outcome for `O=C1C(=O)c2ccccc2C=C1[N+](=O)[O-]` when you have a moment?
label 0

Thanks! And COc1cc(C2SCC(=O)N2c2ccc(-c3ccc(-n4c(-c5ccccc5)nc5ccccc5c4=O)cc3)cc2)cc(OC)c1OC (stereo not given) ?
label 0

What do we get for `O=S(=O)(CCCl)c1ccccc1Cl` ?
label 0

Please answer likewise for O=C1NC(=O)C2C3C=CC(C3)C12 (stereo not given)
label 0

O=C1CSC(/C=C/c2ccccc2)N1c1ccc(-c2ccc(-n3c(-c4ccccc4)nc4ccccc4c3=O)cc2)cc1 (stereo not given) , same question.
label 0

Next record, please: `CN(C)CCOc1ccc2c(c1)C/C(=C/c1ncc([N+](=O)[O-])n1C)C2=O`
label 0

###

Quick list: growth inhibition per entry.
- experiment: NCI Yeast Anticancer Drug Screen. Data for the rad50 strain (AID 155);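 also: 0% = growth of vehicle-only cultures of the same strain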
- cond: S. cerevisiae rad50 strain growth inhibition; at 3.7 µM; stronger effect = higher value
This is part of a sample that, as a whole, favours compounds with a hit. Of some 79,000 tested, about 15% had one in any assay. Activity calls are given as the source filed them. Rule as the data show it: active = growth inhibition above about 70%; inactive = the rest.

As a guide, the following entries are already answered.
molecule=C=C(CN(C)C)C(=O)c1cc(C)ccc1C reported_measurement="23% (inactive)"
molecule=O=[N+]([O-])c1ccc2nc3ccccc3cc2c1 reported_measurement="22% (inactive)"
molecule=CC1CCN(CCC(=O)c2ccc(Cl)cc2)CC1 reported_measurement="19% (inactive)"

Given the entry `O=C(c1cc(Br)ccc1O)c1cc(Br)ccc1O` , report its measured growth inhibition.
67% (inactive)

Same question, `[O-][n+]1c2ccc(O)cc2nc2ccc(Br)cc21` this time
18% (inactive)

Quick one: `O=C([O][Sn]([O]C(=O)c1ccccc1)([c]1ccccc1)[c]1ccccc1)c1ccccc1`
30% (inactive)

And then `Cc1ccc(S/N=C\c2ccccc2O)cc1` , what is it?
-12% (inactive)

Moving on to the next molecule: COC1C=COC2(C)Oc3c(C)c(O)c4c(c3C2=O)/C(=N/C2CCC(O)OC2C)C=C(NC(=O)/C(C)=C\C(=O)C2CC2C(O)C(C)C(O)C(C)C(OC(C)=O)C1C)C4=O (configuration not stated)
-3% (inactive)

Repeat with `CC[n+]1ccc2c(C)c3[nH]c4ccc(O)cc4c3c(C)c2c1`
16% (inactive)

Next up: CCCCN1C(=O)N(c2ccc(OCC)cc2)C2N(CCCC)C1C(C)(C)C2(C)C (configuration not stated)
-18% (inactive)

###

- experiment: NCI Yeast Anticancer Drug Screen. Data for the sgs1 mgt1 strain (AID 161);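 also: 0% = growth of cultures given vehicle only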
- cond: S. cerevisiae sgs1 mgt1 strain, at 50.0 µM (retest, dose inferred, filed as 5.0), stronger effect = higher value
This is part of a sample that, as a whole, favours compounds with a hit. Of some 79,000 tested, about 15% had one in any assay.
Rule: growth inhibition of 80% or more gives t; anything lower gives f.

Reference set, count: 5
structure_as_smiles=CCN(CC)C(C)(C)C(=O)/C=C/c1ccccc1 category_label=t
structure_as_smiles=CC(C)/C(Cl)=N\OC(=O)Nc1ccc(F)cc1 category_label=t
structure_as_smiles=NC1=NS(=O)(=O)N=C(N)C1=Cc1ccc([N+](=O)[O-])o1 category_label=f
structure_as_smiles=CCCCCCCCCCC(=O)Cl category_label=f
structure_as_smiles=COc1cc2c(cc1[N+](=O)[O-])C(=O)C(Br)(Br)CCC2 category_label=t

Determine whether measured growth inhibition meets or exceeds 80% for `Oc1c(Br)cc(Br)cc1C1CCCCC1`
t

Also `Cc1cc(N=Nc2ccc(S(=O)(=O)[O-])cc2)cc(C(=O)[O-])c1[O-].NC1CCCCC1N.[Na+].[Pt+4]` , if possible.
t

###

- experiment: NCI Yeast Anticancer Drug Screen. Data for the cln2 rad14 strain (AID 165);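 also: 0% = growth equal to vehicle treated cultures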
- cond: S. cerevisiae cln2 rad14 strain, at 50.0 µM (retest, dose inferred, filed as 5.0), stronger effect = higher value
Compounds without any hit were thinned out: in the full panel of roughly 79,000, 15% have a hit.
Label scheme, based on growth inhibition: interval 1 (below 20%), interval 2 (20% to below 90%), interval 3 (90% or more)

molecule=O=C(O)CNc1ccc(Cl)c(Cl)c1 category_label="interval 1"
molecule="C(=C\\c1ccccc1)/COc1ccccc1C(N1CCOCC1)n1nc2ccccc2n1 (stereo unspecified)" category_label="interval 2"
molecule=O=[N+]([O-])c1cccc2nc3ccccc3c(NCCCN3CCOCC3)c12 category_label="interval 3"
molecule=CC(=O)ON1C(=O)c2cccc3cccc(c23)C1=O category_label="interval 2"
molecule=C/C(=N\NC(=S)N1CCCCC1)c1cccc(C)n1 category_label="interval 3"

Categorize the following entry: `O=C1c2ccccc2C(=O)c2c(NC3CCCCC3)ccc(Nc3ccc(S(=O)(=O)O)cc3)c21`
interval 1

// next record `Oc1ccc2ccccc2c1C(c1ccc(Cl)cc1)c1c(O)ccc2ccccc12`
interval 3

# repeat for `CC(C)NC(=O)OCc1c(COC(=O)NC(C)C)c(-c2ccc(Cl)c(Cl)c2)n2c1CCC2`
interval 2

Then what about the molecule `O=C(/C=C/c1cccc(Br)c1)c1cccs1` ?
interval 3

Entry `CCC(=O)OCCn1c2nc(=O)[nH]c(=O)c-2nc2cc(C)c(C)cc21` please
interval 1

Thanks! And CC1(Cl)CC(O)C2(CC1Br)C1(C)OC1C1OC1(Br)C2(C)C (stereo unspecified) ?
interval 2

Hey, just so you know, these numbers are from PubChem BioAssay (NCI).
